Target: BT3312 (Bacteroides thetaiotaomicron)
Sequence (Q8A2J3 22-496, change not shown): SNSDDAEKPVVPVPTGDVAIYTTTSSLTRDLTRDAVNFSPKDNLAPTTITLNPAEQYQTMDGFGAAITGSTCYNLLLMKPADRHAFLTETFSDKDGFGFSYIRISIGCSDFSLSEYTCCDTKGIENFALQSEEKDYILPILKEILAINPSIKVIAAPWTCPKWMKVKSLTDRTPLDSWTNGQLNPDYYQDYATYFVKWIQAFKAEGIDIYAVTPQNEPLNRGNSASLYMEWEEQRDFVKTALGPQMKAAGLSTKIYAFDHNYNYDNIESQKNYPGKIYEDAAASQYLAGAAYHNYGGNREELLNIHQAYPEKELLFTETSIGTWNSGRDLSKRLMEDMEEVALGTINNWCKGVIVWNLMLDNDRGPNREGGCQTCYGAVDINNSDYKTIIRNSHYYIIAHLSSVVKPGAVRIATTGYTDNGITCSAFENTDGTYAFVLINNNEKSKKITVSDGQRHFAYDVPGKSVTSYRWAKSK

molecule: OC[C@H]1O[C@@H](OC[C@H]2NC[C@H](O)[C@@H](O)[C@@H]2O)[C@H](O)[C@@H](O)[C@@H]1O
Ki: ~1000 µM

The measured values listed here are drawn from paper PMC5481569.
